test: Stability assessed as half life in phosphate buffer at pH 7.4 by UV-visible spectroscopy; assay type: physicochemical
Give true when the value for half-life is at least 20 min. Give false when it is less.

Some entries whose results are on file:
{"smilesData": "O=C(N[C@@H](Cc1ccccc1)C(=O)Oc1cc(Cl)ccc1C(=O)Nc1ccc(Cl)cc1)OCc1ccccc1", "classAssignment": "true"}
{"smilesData": "CC(C)[C@@H](NC(=O)OCc1ccccc1)C(=O)Oc1ccc(Cl)cc1C(=O)Nc1ccc(Br)cc1", "classAssignment": "false"}
{"smilesData": "O=C(N[C@H](Cc1ccccc1)C(=O)Oc1ccc(Cl)cc1C(=O)Nc1ccc(Br)cc1)OCc1ccccc1", "classAssignment": "true"}

Q: Test whether the molecule CC(C)[C@H](NC(=O)OCc1ccccc1)C(=O)Oc1ccc(Cl)cc1C(=O)Nc1ccc(Br)cc1 records half-life of 20 min or higher.
Ans: false

Q: Test whether the molecule O=C(N[C@H](Cc1ccccc1)C(=O)Oc1cc(Cl)ccc1C(=O)Nc1ccc(Cl)cc1)OCc1ccccc1 records half-life of 20 min or higher.
Ans: true

----------
test: Stability assessed as half life in phosphate buffer at pH 5.5 by UV-visible spectroscopy; format: physicochemical
reportedMetric: half-life (min)
Write the answer as a number in min, unit excluded.

{"smilesData": "CC(C)[C@@H](NC(=O)OCc1ccccc1)C(=O)Oc1cc(Cl)ccc1C(=O)Nc1ccc(Cl)cc1", "reportedMetric": "half-life", "quantitativeReadout": 20.3}
{"smilesData": "O=C(N[C@H](Cc1ccccc1)C(=O)Oc1ccc(Cl)cc1C(=O)Nc1ccc(Br)cc1)OCc1ccccc1", "reportedMetric": "half-life", "quantitativeReadout": 32.5}
{"smilesData": "O=C(N[C@@H](Cc1ccccc1)C(=O)Oc1cc(Cl)ccc1C(=O)Nc1ccc(Cl)cc1)OCc1ccccc1", "reportedMetric": "half-life", "quantitativeReadout": 21.9}
{"smilesData": "O=C(N[C@H](Cc1ccccc1)C(=O)Oc1cc(Cl)ccc1C(=O)Nc1ccc(Cl)cc1)OCc1ccccc1", "reportedMetric": "half-life", "quantitativeReadout": 17.9}
{"smilesData": "CC(C)[C@@H](NC(=O)OCc1ccccc1)C(=O)Oc1ccc(Cl)cc1C(=O)Nc1ccc(Br)cc1", "reportedMetric": "half-life", "quantitativeReadout": 14.8}

Q: Look up half-life for this compound: CC(C)[C@H](NC(=O)OCc1ccccc1)C(=O)Oc1ccc(Cl)cc1C(=O)Nc1ccc(Br)cc1
Ans: 14.3

----------
MIC overview
test system: Mycobacterium kansasii; test: Antimycobacterial activity against Mycobacterium kansasii isolate 6509/96 after 14 days; type: functional; details: isolate 6509/96, 336 h

{"smilesData": "C[C@H](NC(=O)OCc1ccccc1)C(=O)Oc1ccc(Cl)cc1C(=O)Nc1cccc(Cl)c1", "result": "16 µM"}
{"smilesData": "O=C(N[C@H](Cc1ccccc1)C(=O)Oc1cc(Cl)ccc1C(=O)Nc1ccc(Cl)cc1)OCc1ccccc1", "result": "8 µM"}
{"smilesData": "O=C(N[C@H](Cc1ccccc1)C(=O)Oc1ccc(Cl)cc1C(=O)Nc1cccc(Cl)c1)OCc1ccccc1", "result": "16 µM"}
{"smilesData": "CC(C)[C@H](NC(=O)OCc1ccccc1)C(=O)Oc1ccc(Cl)cc1C(=O)Nc1ccc(Cl)c(Cl)c1", "result": "8 µM"}

Q: Look up MIC for this compound: CC(C)[C@H](NC(=O)OCc1ccccc1)C(=O)Oc1ccc(Cl)cc1C(=O)Nc1ccc(Br)cc1
Ans: 8 µM

Q: Look up MIC for this compound: O=C(N[C@H](Cc1ccccc1)C(=O)Oc1ccc(Cl)cc1C(=O)Nc1ccc(Br)cc1)OCc1ccccc1
Ans: 8 µM

Q: Look up MIC for this compound: O=C(CNC(=O)OCc1ccccc1)Oc1ccc(Cl)cc1C(=O)Nc1ccc(Cl)c(Cl)c1
Ans: 8 µM

Q: Look up MIC for this compound: C[C@@H](NC(=O)OCc1ccccc1)C(=O)Oc1cc(Cl)ccc1C(=O)Nc1ccc(Cl)cc1
Ans: 8 µM

----------
assay: Lipophilicity, log K by HPLC; assay type: physicochemical
reportedMetric: log K
When you answer, write just the number.

# example entries with known answers
{"smilesData": "O=C(CNC(=O)OCc1ccccc1)Oc1ccc(Cl)cc1C(=O)Nc1ccc(Cl)c(Cl)c1", "reportedMetric": "log K", "quantitativeReadout": 0.8639}
{"smilesData": "C[C@H](NC(=O)OCc1ccccc1)C(=O)Oc1ccc(Cl)cc1C(=O)Nc1ccc(Cl)c(Cl)c1", "reportedMetric": "log K", "quantitativeReadout": 0.9408}
{"smilesData": "O=C(N[C@@H](Cc1ccccc1)C(=O)Oc1ccc(Cl)cc1C(=O)Nc1ccc(Cl)c(Cl)c1)OCc1ccccc1", "reportedMetric": "log K", "quantitativeReadout": 1.3056}
{"smilesData": "CC(C)[C@@H](NC(=O)OCc1ccccc1)C(=O)Oc1ccc(Cl)cc1C(=O)Nc1ccc(Cl)cc1", "reportedMetric": "log K", "quantitativeReadout": 0.9421}

Q: Look up log K for this molecule: CC(C)[C@@H](NC(=O)OCc1ccccc1)C(=O)Oc1cc(Cl)ccc1C(=O)Nc1ccc(Cl)cc1
Ans: 0.8816

Q: Look up log K for this molecule: O=C(N[C@H](Cc1ccccc1)C(=O)Oc1ccc(Cl)cc1C(=O)Nc1ccc(Cl)cc1)OCc1ccccc1
Ans: 1.0678

Q: Look up log K for this molecule: O=C(CNC(=O)OCc1ccccc1)Oc1ccc(Cl)cc1C(=O)Nc1cccc(Cl)c1
Ans: 0.6119

Q: Look up log K for this molecule: CC(C)[C@H](NC(=O)OCc1ccccc1)C(=O)Oc1ccc(Cl)cc1C(=O)Nc1ccc(Br)cc1
Ans: 0.9803

----------
test system: Mycobacterium kansasii; assay: Antimycobacterial activity against Mycobacterium kansasii isolate 6509/96 after 14 days; type: functional; details: isolate 6509/96, 336 h
reportedMetric: MIC (µM)
Write the answer as a number in µM, unit excluded.

{"compound": "CC(C)[C@H](NC(=O)OCc1ccccc1)C(=O)Oc1ccc(Cl)cc1C(=O)Nc1ccc(Cl)cc1", "resultUnit": "µM", "MIC": 8}

Q: Look up MIC for this compound: C[C@H](NC(=O)OCc1ccccc1)C(=O)Oc1cc(Cl)ccc1C(=O)Nc1ccc(Cl)cc1
Ans: 8

Q: Look up MIC for this compound: CC(C)[C@@H](NC(=O)OCc1ccccc1)C(=O)Oc1ccc(Cl)cc1C(=O)Nc1cccc(Cl)c1
Ans: 16

Q: Look up MIC for this compound: CC(C)[C@H](NC(=O)OCc1ccccc1)C(=O)Oc1ccc(Cl)cc1C(=O)Nc1cccc(Cl)c1
Ans: 16

Q: Look up MIC for this compound: CC(C)[C@H](NC(=O)OCc1ccccc1)C(=O)Oc1cc(Cl)ccc1C(=O)Nc1ccc(Cl)cc1
Ans: 8

Q: Look up MIC for this compound: O=C(N[C@@H](Cc1ccccc1)C(=O)Oc1ccc(Cl)cc1C(=O)Nc1ccc(Br)cc1)OCc1ccccc1
Ans: 16

Q: Look up MIC for this compound: O=C(CNC(=O)OCc1ccccc1)Oc1ccc(Cl)cc1C(=O)Nc1cccc(Cl)c1
Ans: 16

Q: Look up MIC for this compound: NNC(=O)c1ccncc1 [ISONIAZID]
Ans: 8

Q: Look up MIC for this compound: CC(C)[C@@H](NC(=O)OCc1ccccc1)C(=O)Oc1ccc(Cl)cc1C(=O)Nc1ccc(Cl)c(Cl)c1
Ans: 8

----------
system: HCT-8; assay: Cytotoxicity against human HCT8 cells after 72 hrs by XTT assay; type: functional, cell-based; conditions: HCT-8, 72 h
reportedMetric: EC50 (µM)
Write the answer as a number in µM, unit excluded.

{"smilesData": "CC(C)[C@@H](NC(=O)OCc1ccccc1)C(=O)Oc1ccc(Cl)cc1C(=O)Nc1ccc(Br)cc1", "resultUnit": "µM", "EC50": 121}
{"smilesData": "O=C(N[C@H](Cc1ccccc1)C(=O)Oc1cc(Cl)ccc1C(=O)Nc1ccc(Cl)cc1)OCc1ccccc1", "resultUnit": "µM", "EC50": 104}
{"smilesData": "CC(C)[C@H](NC(=O)OCc1ccccc1)C(=O)Oc1ccc(Cl)cc1C(=O)Nc1ccc(Br)cc1", "resultUnit": "µM", "EC50": 122}
{"smilesData": "CC(C)[C@@H](NC(=O)OCc1ccccc1)C(=O)Oc1cc(Cl)ccc1C(=O)Nc1ccc(Cl)cc1", "resultUnit": "µM", "EC50": 107}

Q: Look up EC50 for this compound: O=C(N[C@H](Cc1ccccc1)C(=O)Oc1ccc(Cl)cc1C(=O)Nc1ccc(Br)cc1)OCc1ccccc1
Ans: 35.5

Q: Look up EC50 for this compound: O=C(N[C@@H](Cc1ccccc1)C(=O)Oc1cc(Cl)ccc1C(=O)Nc1ccc(Cl)cc1)OCc1ccccc1
Ans: 82.9

----------
assay: Lipophilicity, log K by HPLC; assay type: physicochemical
reportedMetric: log K
When you answer, write just the number.

{"smilesData": "O=C(N[C@H](Cc1ccccc1)C(=O)Oc1ccc(Cl)cc1C(=O)Nc1cccc(Cl)c1)OCc1ccccc1", "quantitativeReadout": 1.0476}
{"smilesData": "C[C@@H](NC(=O)OCc1ccccc1)C(=O)Oc1ccc(Cl)cc1C(=O)Nc1cccc(Cl)c1", "quantitativeReadout": 0.699}
{"smilesData": "O=C(N[C@H](Cc1ccccc1)C(=O)Oc1cc(Cl)ccc1C(=O)Nc1ccc(Cl)cc1)OCc1ccccc1", "quantitativeReadout": 1.0315}

Okay, now this molecule:
Q: Look up log K for this molecule: CC(C)[C@H](NC(=O)OCc1ccccc1)C(=O)Oc1ccc(Cl)cc1C(=O)Nc1ccc(Cl)cc1
Ans: 0.9417
